Data provenance is ChEMBL document CHEMBL4152327.

Consider the following compounds and their measured pEC50 readings.
System: A2780
test summary: Cytotoxicity against human A2780 cells after 96 hrs by SRB assay
Format: functional, cell-based
run conditions: A2780, 96 h
A value of pEC50 is the negative decimal logarithm of a concentration given in moles per litre.

Example cases with answers are listed next.
INSERT INTO measurements (given_smiles, tgt, recorded_number) VALUES
  ('CC(=O)O[C@@H]1CC[C@@]2(C)[C@@H](CC[C@]3(C)[C@@H]2C(=O)C=C2[C@@H]4[C@@H](C)[C@H](C)CC[C@]4(C)CC[C@]23C)[C@@]1(C)C(=O)N1CCCNCC1', 'A2780', 5.55),
  ('CCN(CC)c1ccc2c(-c3ccccc3C(=O)O[C@H]3CC[C@@]4(C)[C@@H](CC[C@]5(C)[C@@H]4C(=O)C=C4[C@@H]6[C@@H](C)[C@H](C)CC[C@]6(C)CC[C@]45C)[C@@]3(C)C(=O)OCc3ccccc3)c3ccc(=[N+](CC)CC)cc-3oc2c1', 'A2780', 5.88),
  ('CCN(CC)c1ccc2c(-c3ccccc3C(=O)N3CCCN(C(=O)[C@]45CC[C@@H](C)[C@H](C)[C@H]4C4=CC[C@@H]6[C@@]7(C)CC[C@H](OC(C)=O)C(C)(C)[C@@H]7CC[C@@]6(C)[C@]4(C)CC5)CC3)c3ccc(=[N+](CC)CC)cc-3oc2c1', 'A2780', 7.70),
  ('C[C@H]1[C@H](C)CC[C@]2(C)CC[C@]3(C)C(=CC(=O)[C@@H]4[C@@]5(C)CC[C@@H](O)[C@](C)(C(=O)NCc6ccccc6)[C@@H]5CC[C@]43C)[C@H]12', 'A2780', 5.00),
  ('CC(=O)O[C@H]1CC[C@]2(C)[C@H]3CC=C4[C@@H]5CC(C)(C)CC[C@]5(C(=O)N5CCCNCC5)CC[C@@]4(C)[C@]3(C)CC[C@H]2C1(C)C', 'A2780', 5.64);

What reported pEC50 corresponds to CCN(CC)c1ccc2c(-c3ccccc3C(=O)N3CCCN(C(=O)[C@]4(C)[C@@H]5CC[C@]6(C)[C@H](C(=O)C=C7[C@@H]8[C@@H](C)[C@H](C)CC[C@]8(C)CC[C@]76C)[C@@]5(C)CC[C@H]4OC(C)=O)CC3)c3ccc(=[N+](CC)CC)cc-3oc2c1 on A2780? 6.35

For CC(=O)O[C@@H]1CC[C@@]2(C)[C@@H](CC[C@]3(C)[C@@H]2C(=O)C=C2[C@@H]4[C@@H](C)[C@H](C)CC[C@]4(C)CC[C@]23C)[C@@]1(C)C(=O)NCc1ccccc1 then? 4.97

For C=C(C)[C@@H]1CC[C@]2(C(=O)N3CCCNCC3)CC[C@]3(C)[C@H](CC[C@@H]4[C@@]5(C)CC[C@H](OC(C)=O)C(C)(C)[C@@H]5CC[C@]43C)[C@@H]12 then? 5.79

For CCN(CC)c1ccc2c(-c3ccccc3C(=O)N3CCCN(C(=O)[C@]45CCC(C)(C)C[C@H]4C4=CC[C@@H]6[C@@]7(C)CC[C@H](OC(C)=O)C(C)(C)[C@@H]7CC[C@@]6(C)[C@]4(C)CC5)CC3)c3ccc(=[N+](CC)CC)cc-3oc2c1.[Cl-] then? 8.00

For C[C@H]1[C@H](C)CC[C@]2(C)CC[C@]3(C)C(=CC(=O)[C@@H]4[C@@]5(C)CC[C@@H](O)[C@](C)(C(=O)OCc6ccccc6)[C@@H]5CC[C@]43C)[C@H]12 then? 4.52

For CCN(CC)c1ccc2c(-c3ccccc3C(=O)N3CCCN(C(=O)[C@@]4(C)CC[C@]5(C)CC[C@]6(C)C(=CC(=O)[C@@H]7[C@@]8(C)CC[C@H](OC(C)=O)C(C)(C)[C@@H]8CC[C@]76C)[C@@H]5C4)CC3)c3ccc(=[N+](CC)CC)cc-3oc2c1 then? 6.66

For CC(=O)O[C@H]1CC[C@]2(C)[C@H]3C(=O)C=C4[C@@H]5C[C@@](C)(C(=O)N6CCCNCC6)CC[C@]5(C)CC[C@@]4(C)[C@]3(C)CC[C@H]2C1(C)C then? 4.92

For CC(=O)O[C@H]1CC[C@]2(C)[C@H]3CC=C4[C@@H]5[C@@H](C)[C@H](C)CC[C@]5(C(=O)N5CCCNCC5)CC[C@@]4(C)[C@]3(C)CC[C@H]2C1(C)C then? 5.66

For CCN(CC)c1ccc2c(-c3ccccc3C(=O)O[C@@H]3CC[C@@]4(C)[C@@H](CC[C@]5(C)[C@@H]4C(=O)C=C4[C@@H]6[C@@H](C)[C@H](C)CC[C@]6(C)CC[C@]45C)[C@@]3(C)C(=O)OC)c3ccc(=[N+](CC)CC)cc-3oc2c1 then? 6.52

For CCN(CC)c1ccc2c(-c3ccccc3C(=O)O[C@H]3CC[C@@]4(C)[C@@H](CC[C@]5(C)[C@@H]4C(=O)C=C4[C@@H]6[C@@H](C)[C@H](C)CC[C@]6(C)CC[C@]45C)[C@@]3(C)C(=O)NCc3ccccc3)c3ccc(=[N+](CC)CC)cc-3oc2c1 then? 6.28

* * *

test summary: Selectivity index, ratio of EC50 for mouse NIH/3T3 cells to EC50 for human A2780 cells
Format: toxicity
run conditions: NIH/3T3 cells and A2780 cells, read-out: Ratio EC50
quantity kind: selectivity ratio
Reply with the value as a number alone.

GET /values?readout=selectivity ratio&item= CCN(CC)c1ccc2c(-c3ccccc3C(=O)N3CCCN(C(=O)[C@]45CCC(C)(C)C[C@H]4C4=CC[C@@H]6[C@@]7(C)CC[C@H](OC(C)=O)C(C)(C)[C@@H]7CC[C@@]6(C)[C@]4(C)CC5)CC3)c3ccc(=[N+](CC)CC)cc-3oc2c1.[Cl-] 17

* * *

System: SW-1736
test summary: Cytotoxicity against human SW1736 cells after 96 hrs by SRB assay
Format: functional, cell-based
run conditions: SW-1736, 96 h
Consider the following compounds and their measured pEC50 readings.
A value of pEC50 is the negative decimal logarithm of a concentration given in moles per litre.

INSERT INTO measurements (given_smiles, recorded_number) VALUES
  ('CCN(CC)c1ccc2c(-c3ccccc3C(=O)N3CCCN(C(=O)[C@]45CC[C@@H](C)[C@H](C)[C@H]4C4=CC[C@@H]6[C@@]7(C)CC[C@H](OC(C)=O)C(C)(C)[C@@H]7CC[C@@]6(C)[C@]4(C)CC5)CC3)c3ccc(=[N+](CC)CC)cc-3oc2c1', 7.40);

Pending compound:
GET /values?readout=pEC50&item= CCN(CC)c1ccc2c(-c3ccccc3C(=O)N3CCCN(C(=O)[C@]45CCC(C)(C)C[C@H]4C4=CC[C@@H]6[C@@]7(C)CC[C@H](OC(C)=O)C(C)(C)[C@@H]7CC[C@@]6(C)[C@]4(C)CC5)CC3)c3ccc(=[N+](CC)CC)cc-3oc2c1.[Cl-] 7.52

* * *

System: SW-1736
test summary: Cytotoxicity against human SW1736 cells after 96 hrs by SRB assay
Type: functional, cell-based
run conditions: SW-1736, 96 h
quantity kind: pEC50
A value of pEC50 is the negative decimal logarithm of a concentration given in moles per litre.

INSERT INTO results (given_smiles, tgt, recorded_number) VALUES
  ('C=C(C)[C@@H]1CC[C@]2(C(=O)N3CCCNCC3)CC[C@]3(C)[C@H](CC[C@@H]4[C@@]5(C)CC[C@H](OC(C)=O)C(C)(C)[C@@H]5CC[C@]43C)[C@@H]12', 'SW-1736', 5.74);

GET /values?readout=pEC50&item= CC(=O)O[C@H]1CC[C@]2(C)[C@H]3CC=C4[C@@H]5CC(C)(C)CC[C@]5(C(=O)N5CCCNCC5)CC[C@@]4(C)[C@]3(C)CC[C@H]2C1(C)C 5.49

For CC(=O)O[C@H]1CC[C@]2(C)[C@H]3C(=O)C=C4[C@@H]5C[C@@](C)(C(=O)N6CCCNCC6)CC[C@]5(C)CC[C@@]4(C)[C@]3(C)CC[C@H]2C1(C)C then? 4.73

* * *

Test system: NIH3T3
test summary: Cytotoxicity against mouse NIH/3T3 cells after 96 hrs by SRB assay
Format: cell-based
run conditions: NIH3T3, 96 h
quantity kind: EC50 (µM)
Reply numerically in µM, unit not repeated.

Example cases with answers are listed next.
INSERT INTO assay_data (given_smiles, quantity_kind, recorded_number) VALUES
  ('CC(=O)O[C@H]1CC[C@]2(C)[C@H]3CC=C4[C@@H]5CC(C)(C)CC[C@]5(C(=O)N5CCCNCC5)CC[C@@]4(C)[C@]3(C)CC[C@H]2C1(C)C', 'EC50', 1.23),
  ('C[C@H]1[C@H](C)CC[C@]2(C)CC[C@]3(C)C(=CC(=O)[C@@H]4[C@@]5(C)CC[C@@H](O)[C@](C)(C(=O)NCc6ccccc6)[C@@H]5CC[C@]43C)[C@H]12', 'EC50', 4.9);

Pending compound:
GET /values?readout=EC50&item= CCN(CC)c1ccc2c(-c3ccccc3C(=O)N3CCCN(C(=O)[C@]4(C)[C@@H]5CC[C@]6(C)[C@H](C(=O)C=C7[C@@H]8[C@@H](C)[C@H](C)CC[C@]8(C)CC[C@]76C)[C@@]5(C)CC[C@H]4OC(C)=O)CC3)c3ccc(=[N+](CC)CC)cc-3oc2c1 0.4
